MEASURED_ON: recombinant human UGT1A1 (Homo sapiens)
Sequence (P22309 26-533): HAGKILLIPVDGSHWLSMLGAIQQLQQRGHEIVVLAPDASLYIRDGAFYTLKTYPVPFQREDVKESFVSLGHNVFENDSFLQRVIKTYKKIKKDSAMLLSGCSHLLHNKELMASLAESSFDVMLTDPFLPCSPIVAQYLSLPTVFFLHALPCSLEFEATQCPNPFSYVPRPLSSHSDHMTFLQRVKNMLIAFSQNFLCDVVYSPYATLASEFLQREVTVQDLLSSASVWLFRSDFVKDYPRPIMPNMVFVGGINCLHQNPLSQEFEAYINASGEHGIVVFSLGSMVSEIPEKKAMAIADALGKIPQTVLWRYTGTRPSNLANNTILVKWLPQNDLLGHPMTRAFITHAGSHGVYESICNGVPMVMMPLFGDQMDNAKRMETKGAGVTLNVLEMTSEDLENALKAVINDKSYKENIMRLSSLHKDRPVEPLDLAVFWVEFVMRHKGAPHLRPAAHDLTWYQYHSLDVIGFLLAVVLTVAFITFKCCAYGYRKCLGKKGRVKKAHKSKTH
TEST: Glucuronidation by recombinant UGT1A1 (activity screen and steady-state kinetics)
CONDITION: 5 μg membrane protein, UDP-GlcUA 4 mM, 37° C., 30 min, TLC
READOUT_LABEL: Km (µM)
Express it in µM; write the number only.

Quick note, Km for CCCCCc1cc(O)c2c(c1)OC(C)(C)[C@@H]1CCC(C(=O)O)=C[C@@H]21 [COOH-THC, (−)-11-nor-9-carboxy-Δ^9-THC] landed at 170
